- Test system: RPMI-8226 leukemia
- PROTOCOL_DESCRIPTION: NCI tumour cell line growth inhibition, 48 h; in the data active means GI50 below about 0.43 µM; inactive means the rest
Write down one outcome, taken from active, inactive

Cc1ccc2c(c1)C(=O)/C(=C/c1cccc(OCC(=O)c3ccc(Cl)cc3)c1)CS2 = inactive

Ask: // outcome(item) with item = Cc1cc2oc(=O)cc(OC/C=C3/CCC(=O)O3)c2cc1C
Result: inactive

Ask: # fetch the recorded call for O=C(Nc1cccc(-n2ccc3c(NC(=O)c4ccccc4)nccc32)c1)c1ccc(Cl)c(Cl)c1 here
Result: active

Ask: Just curious, what result did CN(CO)c1nc(N(C)CO)nc(N(C)CO)n1 get here?
Result: inactive

Where do these numbers come from? They come from PubChem BioAssay (NCI).
